Measured IC50 accompanies every entry in the list below.
# target or test system: KRas G12C (Homo sapiens, UniProt P01116, G12C)
# Sequence (P01116 1-188 isoform P01116-2 G12C): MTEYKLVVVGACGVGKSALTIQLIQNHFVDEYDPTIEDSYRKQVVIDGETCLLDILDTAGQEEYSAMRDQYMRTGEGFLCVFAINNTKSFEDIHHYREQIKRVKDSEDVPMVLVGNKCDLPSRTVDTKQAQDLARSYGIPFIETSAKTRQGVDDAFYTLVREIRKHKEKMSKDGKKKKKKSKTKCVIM
# assay remarks: Cellular inhibition of KRas G12C measured by Phospho-ERK in NCI-H358 cells
# Type: cell-based
# measurement setup: pERK(Thr202/Tyr204) normalized with GAPDH, NCI-H358 cells, 3 hours; read-out: IC50
endpoint label: IC50

>  <compound>
C=CC(=O)N1CCN(c2nc(OC[C@H]3CCCN3C)nc3c2CCN(c2cc(O)cc4ccccc24)C3)C[C@@H]1CC#N

>  <reported result>
0.0001 to 1 µM

$$$$
>  <compound>
C=CC(=O)N1CCN(c2nc(OCCN(C)C)nc3c2CCN(c2cc(O)cc4ccccc24)C3C)CC1 (stereo not drawn)

>  <reported result>
> 1 µM

$$$$
>  <compound>
C=CC(=O)N1CCN(c2nc(OCCCN(C)C)nc3c2CCN(C(C)c2ccccc2)C3)CC1 (stereo not drawn)

>  <reported result>
> 1 µM

$$$$
>  <compound>
C=CC(=O)N1CCN(c2nc(OC[C@@H]3C[C@H](OC)CN3C)nc3c2CCN(c2cccc4ccccc24)C3)CC1CC#N (stereo partly drawn)

>  <reported result>
0.0001 to 1 µM

$$$$
>  <compound>
C=CC(=O)N1CCN(c2nc(OCCN(C)C)nc3c2CCN(c2cc(O)cc4ccccc24)C3)C[C@@H]1C

>  <reported result>
> 1 µM

$$$$
>  <compound>
C=CC(=O)N1CCN(c2ncnc3c2CCN(c2nc(N)cc4ccccc24)C3)CC1

>  <reported result>
> 1 µM

$$$$
>  <compound>
C=CC(=O)N1CCN(c2nc(OC[C@@H]3CCCN3C)nc3c2CCN(c2cccc4ccn(C)c24)C3)C[C@@H]1CC#N

>  <reported result>
0.0001 to 1 µM

$$$$
>  <compound>
C=CC(=O)N1CCN(c2nc(OC[C@@H]3CCCN3C)nc3c2CCN(c2cccc4cccc(CC)c24)C3)C[C@@H]1CC#N

>  <reported result>
0.0001 to 1 µM

$$$$
>  <compound>
C=CC(=O)N1CCN(c2nc(OCCCN3C[C@@H]4C[C@H]3CO4)nc3c2CCN(c2c(C)ccc4[nH]ncc24)C3)CC1

>  <reported result>
> 1 µM

$$$$
>  <compound>
C=CC(=O)N1CCN(c2nc(OC[C@@H]3CCCN3CC3CC3)nc3c2CCN(c2cccc4ccccc24)C3)CC1CC#N (stereo partly drawn)

>  <reported result>
0.0001 to 1 µM

$$$$
>  <compound>
C=CC(=O)N1CCN(c2nc(OCCCN3CCOCC3)nc3c2CCN(c2cc(O)cc(Cl)c2F)C3)CC1

>  <reported result>
> 1 µM

$$$$
>  <compound>
CN1CCC[C@H]1COc1nc2c(c(N3CCN(C(=O)/C=C/CN4CCOCC4)[C@@H](CC#N)C3)n1)CCN(c1cccc3cccc(Cl)c13)C2

>  <reported result>
0.0001 to 1 µM

$$$$
>  <compound>
C=CC(=O)N1CCN(c2nc(OC[C@@H]3CCCN3C)nc3c2CCN(c2cccc4cccnc24)C3)CC1CC#N (stereo partly drawn)

>  <reported result>
> 1 µM

$$$$
>  <compound>
Cc1cccc2cccc(N3CCc4c(nc(OC[C@@H]5CCCN5C)nc4N4CCN(C(=O)/C=C/C#N)[C@@H](CC#N)C4)C3)c12

>  <reported result>
0.0001 to 1 µM

$$$$
>  <compound>
C=CC(=O)N1CCN(c2nc(NC3CCN(C4CC4)CC3)nc3c2CCN(c2cc(O)cc4ccccc24)C3)CC1

>  <reported result>
> 1 µM

$$$$
>  <compound>
[2H]C([2H])=C([2H])C(=O)N1CCN(c2nc(OC[C@@H]3CCCN3C)nc3c2CCN(c2cccc4ccccc24)C3)C[C@@H]1CC#N

>  <reported result>
0.0001 to 1 µM

$$$$
>  <compound>
C=CC(=O)N1CCN(c2nc(OCC3CCN(Cc4ccccc4)C3)nc3c2CCN(c2cc(O)cc4ccccc24)C3)CC1 (stereo not drawn)

>  <reported result>
> 1 µM

$$$$
>  <compound>
CN1CCC[C@H]1COc1nc2c(c(N3CCN(C(=O)/C=C/CN4CCC(F)(F)C4)[C@@H](CC#N)C3)n1)CCN(c1cccc(Cl)c1C(F)(F)F)C2

>  <reported result>
> 1 µM

$$$$
>  <compound>
C=C(F)C(=O)N1CCN(c2nc(OC[C@@H]3C[C@@H](F)CN3C)nc3c2CCN(c2c(C)c(C)cc4[nH]ncc24)C3)C[C@@H]1CC#N

>  <reported result>
0.0001 to 1 µM

$$$$
>  <compound>
Cc1cccc(N2CCc3c(nc(OC[C@@H]4CCCN4C)nc3N3CCN(C(=O)/C=C/C(F)(F)F)[C@@H](CC#N)C3)C2)c1C

>  <reported result>
0.0001 to 1 µM

$$$$
>  <compound>
C=CC(=O)N1CCN(c2nc(OCCN(C)C)nc3c2CCN(c2cc(O)cc4ccccc24)C3)C[C@@H]1CC#N

>  <reported result>
0.0001 to 1 µM

$$$$
>  <compound>
C=CC(=O)N1CCN(c2nc(OC[C@@H]3CCCN3C)nc3c2CCN(c2ccccc2F)C3)CC1CC#N (stereo partly drawn)

>  <reported result>
0.0001 to 1 µM

$$$$
>  <compound>
CC#CC(=O)N1CCN(c2nc(OC[C@@H]3CCCN3C)nc3c2CCN(c2cccc(C)c2C)C3)C[C@@H]1CC#N

>  <reported result>
> 1 µM

$$$$
>  <compound>
C=CC(=O)N1CCN(c2nc(OC[C@@H]3CCCN3CC)nc3c2CCN(c2cccc(Cl)c2C(F)(F)F)C3)C[C@@H]1CC#N

>  <reported result>
0.0001 to 1 µM

$$$$
>  <compound>
C=CC(=O)N1CCN(c2nc(OCC3COCCN3C)nc3c2CCN(c2cc(O)cc4ccccc24)C3)CC1 (stereo not drawn)

>  <reported result>
> 1 µM

$$$$
>  <compound>
C=CC(=O)N1CCN(c2nc(OC[C@@H]3C[C@@H](OC)CN3C)nc3c2CCN(c2cc(OC)cc4ccccc24)C3)CC1

>  <reported result>
> 1 µM

$$$$
>  <compound>
C=CC(=O)N1CCN(c2nc(N3CC(N(C)C)C3)nc3c2CCN(c2cc(O)cc4ccccc24)C3)CC1

>  <reported result>
> 1 µM

$$$$

Values were extracted from patent US10689377B2.
